# SYSTEM NAME: recombinant human Bcl-2 D103Y protein (Homo sapiens (Human), UniProt P10415, D103Y)
# Sequence (P10415 whole entry D103Y): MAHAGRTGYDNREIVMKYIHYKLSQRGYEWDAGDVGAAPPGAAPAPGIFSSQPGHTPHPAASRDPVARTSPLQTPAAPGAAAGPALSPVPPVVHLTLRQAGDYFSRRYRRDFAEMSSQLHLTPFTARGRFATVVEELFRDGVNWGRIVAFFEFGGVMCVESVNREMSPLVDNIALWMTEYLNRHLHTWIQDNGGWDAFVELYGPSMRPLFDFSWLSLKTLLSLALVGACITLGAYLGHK
# ASSAY METHOD TEXT: Bcl-2-D103Y Biochemical Assay (TR-FRET)
# RUN CONDITIONS: TR-FRET, FITC labeled Bak peptide
Listing: IC50 of selected compounds
RESULT TYPE: IC50 (nM)

* COc1cc(CN2CCN(C3CC4(CCN(c5ccc(C(=O)NS(=O)(=O)c6ccc(NC[C@H]7CC[C@](C)(O)CC7)c([N+](=O)[O-])c6)c(Oc6cnc7[nH]cc(F)c7c6)c5)CC4)C3)[C@H](c3ccccc3C(C)C)C2)ccc1F | 0.34
* COc1ccc(CN2CCN(C3CC4(CCN(c5ccc(C(=O)NS(=O)(=O)c6ccc(NC[C@H]7CC[C@](C)(O)CC7)c([N+](=O)[O-])c6)c(Oc6cnc7[nH]ccc7c6)c5)CC4)C3)C(c3ccccc3C(C)C)C2)cn1 (stereo partly shown) | 0.08
* COc1cc(CN2CCN(C3CC4(CCN(c5ccc(C(=O)NS(=O)(=O)c6ccc(NC[C@H]7CC[C@](C)(O)CC7)c([N+](=O)[O-])c6)c(Oc6cnc7[nH]cc(F)c7c6)c5)CC4)C3)[C@H](c3ccccc3C(C)C)C2)ccc1C | 0.82
* CC(C)c1ccccc1C1CN(Cc2cccc3c2OCCO3)CCN1C1CC2(CCN(c3ccc(C(=O)NS(=O)(=O)c4ccc(NC[C@H]5CC[C@](C)(O)CC5)c([N+](=O)[O-])c4)c(Oc4cnc5[nH]ccc5c4)c3)CC2)C1 (stereo partly shown) | 0.19

###

Each record here notes measured IC50.
# SYSTEM NAME: Recombinant human Bcl-2 protein (Homo sapiens (Human))
# Sequence (P10415 whole entry): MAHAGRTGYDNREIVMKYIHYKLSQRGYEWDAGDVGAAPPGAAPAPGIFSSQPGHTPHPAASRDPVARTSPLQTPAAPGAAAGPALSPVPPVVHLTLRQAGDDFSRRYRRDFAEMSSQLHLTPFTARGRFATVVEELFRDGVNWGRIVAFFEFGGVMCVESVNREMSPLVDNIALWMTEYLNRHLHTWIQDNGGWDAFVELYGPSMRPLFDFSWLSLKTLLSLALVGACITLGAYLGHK
# ASSAY METHOD TEXT: Bcl-2 TR-FRET Assay
# Assay type: binding
# RUN CONDITIONS: Bcl-2 wild type, TR-FRET; read-out: Biochemical assay (IC50, nM) Bcl-2 WT
RESULT TYPE: IC50 (nM)

- CC(C)c1ccccc1[C@@H]1CN(Cc2ccc(OC3CC3)cc2)CCN1C1CC2(C1)CN(c1ccc(C(=O)NS(=O)(=O)c3ccc(NC[C@H]4CC[C@](C)(O)CC4)c([N+](=O)[O-])c3)c(Oc3cnc4[nH]cc(F)c4c3)c1)C2 [Example 365]: 0.46
- [2H]C([2H])(c1ccc(OC)c(OC)c1)N1CCN(C2CC3(CCN(c4ccc(C(=O)NS(=O)(=O)c5ccc(NC[C@H]6CC[C@](C)(O)CC6)c([N+](=O)[O-])c5)c(Oc5cnc6[nH]ccc6c5)c4)CC3)C2)C(c2ccccc2C(C)C)C1 (stereo partly shown) [Example 193]: 0.068
- CC(C)c1ccccc1C1CN(Cc2cc(F)cc(F)c2)CCN1C1CC2(CCN(c3ccc(C(=O)NS(=O)(=O)c4ccc(NC[C@H]5CC[C@](C)(O)CC5)c([N+](=O)[O-])c4)c(Oc4cnc5[nH]ccc5c4)c3)CC2)C1 (stereo partly shown) [Example 51]: 0.42
- COc1ccc(CN2CCN(C3CC4(CCN(c5ccc(C(=O)NS(=O)(=O)c6ccc(NC[C@H]7CC[C@](C)(O)CC7)c([N+](=O)[O-])c6)c(Oc6cnc7[nH]cc(Cl)c7c6)c5)CC4)C3)[C@H](c3ccccc3C(C)C)C2)cc1OC [Example 174]: 0.096

###

# SYSTEM NAME: Recombinant human Bcl-2 protein (Homo sapiens (Human))
# ASSAY METHOD TEXT: Bcl-2 TR-FRET Assay
# Assay type: binding
# RUN CONDITIONS: Bcl-2 wild type, TR-FRET; read-out: Biochemical assay (IC50, nM) Bcl-2 WT
RESULT TYPE: IC50 (nM)

- CCc1ccc(CN2CCN(C3CC4(C3)CN(c3ccc(C(=O)NS(=O)(=O)c5ccc(NC[C@H]6CC[C@](C)(O)CC6)c([N+](=O)[O-])c5)c(Oc5cnc6[nH]ccc6c5)c3)C4)[C@H](c3ccccc3C(C)C)C2)cc1OC: 0.47
- CCN1CCN(C2CC3(CCN(c4ccc(C(=O)NS(=O)(=O)c5ccc(NC[C@H]6CC[C@](C)(O)CC6)c([N+](=O)[O-])c5)c(Oc5cnc6[nH]ccc6c5)c4)CC3)C2)C(c2ccccc2C(C)C)C1 (some centres unmarked): 0.011

###

# SYSTEM NAME: recombinant human Bcl-2 D103Y protein (Homo sapiens (Human), UniProt P10415, D103Y)
# ASSAY METHOD TEXT: Bcl-2-D103Y Biochemical Assay (TR-FRET)
# Type: binding
# RUN CONDITIONS: ratio of IC50
RESULT TYPE: Ratio of Bcl-2 D103Y/Bcl-2 WT

- COc1ccc(CN2CCN(C3CC4(CCN(c5ccc(C(=O)NS(=O)(=O)c6ccc(NCC7(F)CCOCC7)c([N+](=O)[O-])c6)c(Oc6cnc7[nH]ccc7c6)c5)CC4)C3)[C@H](c3ccccc3C(C)C)C2)cc1 (single isomer, unassigned) [Example 32]: 1.1
- CC(C)c1ccccc1C1CN(CCc2ccccc2)CCN1C1CC2(CCN(c3ccc(C(=O)NS(=O)(=O)c4ccc(NC[C@H]5CC[C@](C)(O)CC5)c([N+](=O)[O-])c4)c(Oc4cnc5[nH]ccc5c4)c3)CC2)C1 (stereo partly shown) [Example 26]: 4.7
- COc1cc(CN2CCN(C3CC4(C3)CN(c3ccc(C(=O)NS(=O)(=O)c5ccc(NC[C@H]6CC[C@](C)(O)CC6)c([N+](=O)[O-])c5)c(Oc5cnc6[nH]cc(F)c6c5)c3)C4)[C@H](c3ccccc3C(C)C)C2)cnc1OC [Example 205]: 1.4
- COc1ccc(CN2CCN(C3CC4(CCN(c5ccc(C(=O)NS(=O)(=O)c6ccc(NCC7(F)CCC(C)(O)CC7)c([N+](=O)[O-])c6)c(Oc6cnc7[nH]ccc7c6)c5)CC4)C3)[C@H](c3ccccc3C(C)C)C2)cc1 (stereo partly shown) [Example 226]: 1

###

# SYSTEM NAME: recombinant human Bcl-2 D103Y protein (Homo sapiens (Human), UniProt P10415, D103Y)
# ASSAY METHOD TEXT: Bcl-2-D103Y Biochemical Assay (TR-FRET)
# RUN CONDITIONS: TR-FRET, FITC labeled Bak peptide
pIC50: −log10 of the molar value.
As shown below, each of these molecules has a reported pIC50 value.
RESULT TYPE: pIC50

• COc1cc(CN2CCN(C3CC4(C3)CN(c3ccc(C(=O)NS(=O)(=O)c5ccc(NC[C@H]6CC[C@](C)(O)CC6)c([N+](=O)[O-])c5)c(Oc5cnc6[nH]cc(F)c6c5)c3)C4)[C@H](c3ccccc3C(C)C)C2)cc2c1OCC2(C)C = 9.60
• COc1cc(CN2CCN(C3CC4(C3)CN(c3ccc(C(=O)NS(=O)(=O)c5ccc(NC[C@H]6CC[C@](C)(O)CC6)c([N+](=O)[O-])c5)c(Oc5cnc6[nH]cc(F)c6c5)c3)C4)[C@H](c3ccccc3C(C)C)C2)ccc1N1CC(OC)C1 = 9.36
• CC(C)c1ccccc1C1CN(Cc2ccc(C(F)(F)F)cc2)CCN1C1CC2(CCN(c3ccc(C(=O)NS(=O)(=O)c4ccc(NC[C@H]5CC[C@](C)(O)CC5)c([N+](=O)[O-])c4)c(Oc4cnc5[nH]ccc5c4)c3)CC2)C1 (stereo partly shown) = 8.51
• COc1ccc(CN2CCN(C3CC4(C3)CN(c3ccc(C(=O)NS(=O)(=O)c5ccc(NC[C@H]6CC[C@](C)(O)CC6)c([N+](=O)[O-])c5)c(Oc5cnc6[nH]cc(F)c6c5)c3)C4)[C@H](c3ccccc3C(C)C)C2)cc1OC1CC1 = 9.85

###

# SYSTEM NAME: recombinant human Bcl-2 D103Y protein (Homo sapiens (Human), UniProt P10415, D103Y)
# ASSAY METHOD TEXT: Bcl-2-D103Y Biochemical Assay (TR-FRET)
# RUN CONDITIONS: TR-FRET, FITC labeled Bak peptide
RESULT TYPE: IC50

* COc1ccc(CN2CCN(C3CC4(CCN(c5ccc(C(=O)NS(=O)(=O)c6ccc(NC[C@H]7CC[C@](C)(O)CC7)c([N+](=O)[O-])c6)c(Oc6cnc7[nH]ccc7c6)c5)CC4)C3)C(c3ccccc3C(C)C)C2)c(OC)c1 (some centres unmarked) [Example 48] | 0.2 nM
* CC(C)c1ccccc1[C@@H]1CN(Cc2ccc3c(c2)OCC3)CCN1C1CC2(CCN(c3ccc(C(=O)NS(=O)(=O)c4ccc(NC[C@H]5CC[C@](C)(O)CC5)c([N+](=O)[O-])c4)c(Oc4cnc5[nH]ccc5c4)c3)CC2)C1 [Example 304] | 0.22 nM
* COc1cc(CN2CCN(C3CC4(CCN(c5ccc(C(=O)NS(=O)(=O)c6ccc(NC[C@H]7CC[C@](C)(O)CC7)c([N+](=O)[O-])c6)c(Oc6cnc7[nH]cc(F)c7c6)c5)CC4)C3)[C@H](c3ccccc3C(C)C)C2)ccc1C1CC1 [Example 258] | 1.5 nM
* CC(C)c1ccccc1C1CN(Cc2cccc3sccc23)CCN1C1CC2(CCN(c3ccc(C(=O)NS(=O)(=O)c4ccc(NC[C@H]5CC[C@](C)(O)CC5)c([N+](=O)[O-])c4)c(Oc4cnc5[nH]ccc5c4)c3)CC2)C1 (some centres unmarked) [Example 59] | 3.2 nM
* COc1cc(CN2CCN(C3CC4(C3)CN(c3ccc(C(=O)NS(=O)(=O)c5ccc(NC[C@H]6CC[C@](C)(O)CC6)c([N+](=O)[O-])c5)c(Oc5cnc6[nH]cc(F)c6c5)c3)C4)[C@H](c3ccccc3C(C)C)C2)cnc1OC [Example 205] | 0.047 nM
* COc1cc(CN2CCN(C3CC4(C3)CN(c3ccc(C(=O)NS(=O)(=O)c5ccc(NC[C@H]6CC[C@](C)(O)CC6)c([N+](=O)[O-])c5)c(Oc5cnc6[nH]ccc6c5)c3)C4)[C@H](c3ccccc3C(C)C)C2)cnc1OC [Example 242] | 0.033 nM
* CC(C)c1ccccc1C1CN(C(C)C)CCN1C1CC2(CCN(c3ccc(C(=O)NS(=O)(=O)c4ccc(NC[C@H]5CC[C@](C)(O)CC5)c([N+](=O)[O-])c4)c(Oc4cnc5[nH]ccc5c4)c3)CC2)C1 (some centres unmarked) [Example 3] | 0.11 nM
* COc1ccc(CN2CCN(C3CC4(CCN(c5ccc(C(=O)NS(=O)(=O)c6ccc(NC[C@H]7CC[C@](C)(O)CC7)c([N+](=O)[O-])c6)c(Oc6cnc7[nH]ccc7c6)c5)CC4)C3)C(c3ccccc3C(C)C)C2)cc1C#N (some centres unmarked) [Example 132] | 0.47 nM

These measurements were taken from patent US20240376097A1.
